tested on: Tov112D; assay: Primary qHTS to identify gynecologic anti-cancer compounds using libraries of approved drugs and bioactive compounds (AID 1345084); conditions: Gynecologic cancer cell panel viability, ATPlite luminescence, 48 h; series mostly up to 57.5 µM; further: nearly all actives have a fitted effect of over 55% in size
Records with an inconclusive call do not appear. Active and inactive are the calls of the source. The call rests on the fitted dose curve; in most records, active means well fitted cell-killing curve with a large enough effect; inconclusive means small, poorly fitted or top-dose-only effect, or effect the other way; inactive means flat fitted curve, though single readings scatter.
Outcome codes: Yes for active, No for inactive

>>> cat("Cc1c(C(N)=O)cc([N+](=O)[O-])cc1[N+](=O)[O-]")
"No"
>>> cat("CN1[C@@H]2CC[C@H]1CC(OC(=O)c1c[nH]c3ccccc13)C2 (some centres undefined)")
"No"
>>> cat("Cc1ccc(O)c2ncccc12")
"No"
>>> cat("O=S1(=O)c2cccc3cccc(c23)N1CCCN1CCN(c2ccc(F)cc2)CC1")
"No"
>>> cat("COc1cccc2c1C(=O)c1c(O)c3c(c(O)c1C2=O)C[C@@](O)(C(=O)CO)C[C@@H]3O[C@H]1C[C@H](N)[C@H](O)[C@H](C)O1")
"Yes"
>>> cat("CC(C)(C)CC(C)(C)c1ccc(O)c(Cc2ccc(Cl)cc2Cl)c1")
"No"
>>> cat("C[C@]12CCC(=O)C=C1CC[C@H]1[C@@H]3CC[C@](O)(C(=O)CO)[C@@]3(C)C[C@H](O)[C@@]12F")
"No"
>>> cat("COc1c2occc2c(OC)c2c(=O)cc(C)oc12")
"No"
>>> cat("Cc1cccc(C)c1NC(=O)CN1CCN(CCCC(c2ccc(F)cc2)c2ccc(F)cc2)CC1")
"No"

###

test system: SKOV3; assay: Primary qHTS to identify gynecologic anti-cancer compounds using libraries of approved drugs and bioactive compounds (AID 1345084); settings: Gynecologic cancer cell panel viability, ATPlite luminescence, 48 h; series mostly up to 57.5 µM; further: nearly all actives have a fitted effect of over 55% in size
Results filed as inconclusive are left out. Activity calls are given as the source filed them. The call rests on the fitted dose curve; in most records, active means well fitted cell-killing curve with a large enough effect; inconclusive means small, poorly fitted or top-dose-only effect, or effect the other way; inactive means flat fitted curve, though single readings scatter.
Outcome codes: 1 (yes) (active), 0 (no) (inactive)

>>> cat("COC1=CC(=O)C[C@@H](C)[C@]12Oc1c(Cl)c(OC)cc(OC)c1C2=O")
"0 (no)"
>>> cat("C[C@@H](CN(C)C)CN1c2ccccc2Sc2ccccc21")
"1 (yes)"
>>> cat("CCCCCCc1ccc(O)cc1O")
"0 (no)"
>>> cat("CC(C)(Oc1ccc(Cl)cc1)C(=O)O")
"0 (no)"
>>> cat("COc1ccc(C2C(=O)c3ccccc3C2=O)cc1")
"0 (no)"
>>> cat("COc1ccc(/C=C/C(=O)c2ccc(OC)cc2OC)cc1")
"1 (yes)"
>>> cat("Oc1ccc(O)cc1")
"0 (no)"
>>> cat("CCCCCCCCCCCCCCNCCO")
"0 (no)"
>>> cat("COc1cc(-c2ccc(=O)[nH]n2)ccc1OC(F)F")
"0 (no)"
>>> cat("O=C(N/N=C/c1ccccc1O)c1ccncc1")
"0 (no)"
>>> cat("CC1(C)O[C@@H]2C[C@H]3[C@@H]4C[C@H](F)C5=CC(=O)C=C[C@]5(C)[C@H]4[C@@H](O)C[C@]3(C)[C@]2(C(=O)CO)O1")
"0 (no)"
>>> cat("C[C@]12CCC(=O)C=C1CC[C@H]1[C@@H]3CC[C@](O)(C(=O)CO)[C@@]3(C)C[C@H](O)[C@@]12F")
"0 (no)"
>>> cat("C[C@]12CC[C@@H]3c4ccc(O)cc4CC[C@H]3[C@@H]1C[C@@H](O)[C@@H]2O")
"0 (no)"
